Items are presented alongside their recorded IC50.
target: Vitamin D3 receptor (Homo sapiens, UniProt P11473); experiment: Inhibition of VDR (unknown origin) interaction to SRC2-3 peptide by fluorescence polarization assay
Sequence (P11473 whole entry): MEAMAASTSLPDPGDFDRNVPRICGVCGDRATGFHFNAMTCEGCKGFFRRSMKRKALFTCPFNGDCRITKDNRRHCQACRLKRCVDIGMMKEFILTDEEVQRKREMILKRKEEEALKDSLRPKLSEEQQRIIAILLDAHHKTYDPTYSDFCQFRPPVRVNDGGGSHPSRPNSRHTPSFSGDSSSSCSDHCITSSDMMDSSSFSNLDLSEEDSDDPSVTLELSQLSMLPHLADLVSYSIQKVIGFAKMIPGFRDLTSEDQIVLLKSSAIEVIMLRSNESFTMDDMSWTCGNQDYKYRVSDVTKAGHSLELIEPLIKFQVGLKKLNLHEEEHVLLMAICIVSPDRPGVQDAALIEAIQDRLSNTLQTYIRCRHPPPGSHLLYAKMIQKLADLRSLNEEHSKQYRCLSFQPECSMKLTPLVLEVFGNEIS

q: Recorded IC50 for `CS(=O)(=O)c1ccc(C(=O)NCCCC(=O)N2CCN(c3ccc(F)cc3)CC2)cc1[N+](=O)[O-]` , please?
a: 65 µM

q: Recorded IC50 for `CS(=O)(=O)c1ccc(C(=O)NCCC(=O)N2CCc3ccccc32)cc1[N+](=O)[O-]` , please?
a: > 60 µM

q: Using the record for `CN(Cc1ccccc1)C(=O)CN(C)C(=O)c1ccc(S(C)(=O)=O)c([N+](=O)[O-])c1` , report its IC50.
a: > 60 µM

q: Tell me the measured IC50 of `CN(Cc1cccc(F)c1)C(=O)C1CCN(C(=O)c2ccc(S(C)(=O)=O)c([N+](=O)[O-])c2)CC1` , please.
a: > 60 µM

q: Need IC50, item `Cc1ccc(N2CCN(C(=O)CCCNC(=O)c3ccc(S(C)(=O)=O)c([N+](=O)[O-])c3)CC2)cc1`
a: > 60 µM

q: What does the record list as IC50 for `CC1CCN(C(=O)C2CCN(C(=O)c3ccc(S(C)(=O)=O)c([N+](=O)[O-])c3)CC2)CC1` ?
a: > 60 µM

q: Fill in: IC50 of `CS(=O)(=O)c1ccc(C(=O)NCC(=O)N2CCC(c3ccccc3)CC2)cc1[N+](=O)[O-]` is ___
a: 37 µM

q: I would be grateful if you could share the reported IC50 for CC1Cc2ccccc2N1C(=O)CN(C)C(=O)c1ccc(S(C)(=O)=O)c([N+](=O)[O-])c1 (stereo not drawn) .
a: > 60 µM

q: Give the measured IC50 of `CS(=O)(=O)c1ccc(C(=O)NCCC(=O)N2CCCc3ccccc32)cc1[N+](=O)[O-]` .
a: > 60 µM
